Origin of the recorded values: patent EP2236511A2

- measured_target: human H1 receptor (Homo sapiens, UniProt P35367)
- Construct: expressed in transfected cells; host or cells: CHO-K1
- Sequence (P35367 whole entry): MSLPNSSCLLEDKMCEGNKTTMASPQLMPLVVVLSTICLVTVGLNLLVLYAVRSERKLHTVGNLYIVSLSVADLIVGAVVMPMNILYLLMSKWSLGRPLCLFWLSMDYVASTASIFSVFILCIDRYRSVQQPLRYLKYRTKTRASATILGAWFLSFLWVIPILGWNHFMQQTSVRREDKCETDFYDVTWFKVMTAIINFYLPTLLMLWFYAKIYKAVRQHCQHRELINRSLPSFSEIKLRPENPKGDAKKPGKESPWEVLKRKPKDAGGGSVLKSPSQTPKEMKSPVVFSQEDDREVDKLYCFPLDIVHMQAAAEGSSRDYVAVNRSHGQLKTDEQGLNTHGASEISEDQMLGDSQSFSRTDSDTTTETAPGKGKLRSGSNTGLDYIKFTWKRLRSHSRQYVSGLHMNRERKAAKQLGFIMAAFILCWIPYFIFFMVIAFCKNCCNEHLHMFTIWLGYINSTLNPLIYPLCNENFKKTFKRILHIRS
- experiment_summary: Radioligand binding to histamine receptor H1 ([3H] Pyrilamine, CHO-K1 membranes)
- condition_set: read-out: Histamine receptors, % inhibition H1, 10 µM ligand
Where a name gives a salt, the structure may show the parent alone.
# inhibition at 10 µM per entry
Only the number, expressed in %, is required.

// inhibition at 10 µM lookup, key: Cc1ccc2c(c1)[C@@H]1CN(C)CCC[C@@H]1N2CCc1cccnc1 (relative stereo) [1.6.1(1)·3HCl]
100

// inhibition at 10 µM lookup, key: CN1CCc2c(c3ccccc3n2Cc2ccccc2)C1.Cl [1.9(1)·HCl]
97

// inhibition at 10 µM lookup, key: Cc1ccc2c(c1)[C@@H]1CN(C)CCC[C@@H]1N2CCc1ccc(C)nc1 (relative stereo) [1.6.1(2)·3HCl]
102

// inhibition at 10 µM lookup, key: Cc1ccc(S(=O)(=O)n2c3c(c4cc(C)ccc42)CN(C)CCC3)cc1 [1.8.1(3)·HCl]
95
